Provenance of the data: paper PMC10830309

Assay Target: Porcine pancreatic lipase, type II (Sus scrofa)
Measured Property: pKi
Numbers only, as −log10 of the molar value.

Q: Please look up its pKi: COc1cc(O)c2c(c1)OC(c1ccc(O)cc1)CC2=O (stereo not shown) [F01]
Result: 5.15

* * *

Exercise: state measured IC50 for each of the compounds provided.
Assay Target: Porcine pancreatic lipase, type II (Sus scrofa, UniProt P00591)
Construct: purchased Merck Millipore / Sigma-Aldrich L-3126
Sequence (P00591 whole entry): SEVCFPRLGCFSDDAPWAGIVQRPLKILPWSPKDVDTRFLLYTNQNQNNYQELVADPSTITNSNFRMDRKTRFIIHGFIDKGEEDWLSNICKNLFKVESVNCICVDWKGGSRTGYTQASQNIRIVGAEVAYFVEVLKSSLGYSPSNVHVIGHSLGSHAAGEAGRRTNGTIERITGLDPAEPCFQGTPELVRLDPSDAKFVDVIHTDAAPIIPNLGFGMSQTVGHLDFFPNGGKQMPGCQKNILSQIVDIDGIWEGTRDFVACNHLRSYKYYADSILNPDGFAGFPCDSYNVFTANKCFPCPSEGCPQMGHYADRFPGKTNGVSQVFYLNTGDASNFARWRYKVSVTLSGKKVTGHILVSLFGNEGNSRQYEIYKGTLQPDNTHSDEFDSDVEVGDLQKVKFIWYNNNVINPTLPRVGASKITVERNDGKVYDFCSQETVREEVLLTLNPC
Measurement Notes: Pancreatic lipase inhibition assay (spectrophotometric, p-NPP substrate)
Assay type: biochemical
Test Context: p-NPP substrate, 50 mM Tris-HCl pH 8.0, 37°C, absorbance 405 nm; read-out: IC50 for pancreatic lipase
One number for each entry, in µM.

Known results for compounds:
COc1cc(O)c2c(=O)cc(-c3ccc(OC)c(OC)c3)oc2c1 [F09] = 465
COc1ccc(C2CC(=O)c3c(O)cc(OC)cc3O2)cc1 (stereo not shown) [F02] = 76.2

# ---- query compound ----
Q: # query: IC50 of entry COc1cc(O)c2c(c1)OC(c1ccc(O)cc1)CC2=O (stereo not shown) [F01]
Result: 17.7
